Endpoint summary: Ki, system: Glycogen phosphorylase, muscle form (Oryctolagus cuniculus, UniProt P00489), multiple sources combined.
Measured metric: Ki (µM)

A selection of reference data follows.
{"columns": ["Test smiles", "Ki / µM"],
 "data": [
  ["OCc1n[nH]c([C@@H]2O[C@H](CO)[C@@H](O)[C@H](O)[C@H]2O)n1", 105],
  ["Cc1ccc(-c2n[nH]c([C@@H]3O[C@H](CO)[C@@H](O)[C@H](O)[C@H]3O)n2)cc1", 1.7],
  ["O=C(N[C@@H]1O[C@H](CO)[C@@H](O)[C@H](O)[C@H]1O)C1=COc2ccccc2O1", 85]
]}

[I] O=C(N[C@@H]1O[C@H](CO)[C@@H](O)[C@H](O)[C@H]1O)c1cc(-c2ccccc2)no1
[II] O=C(/N=C1/NC(=O)[C@]2(O[C@H](CO)[C@@H](O)[C@H](O)[C@H]2O)S1)c1ccc2ccccc2c1
Which has the higher Ki, I or II ? Which one? Tell me its label.
I
(I: 172 µM, II: 10 µM)

[a] CC(C)(C)C(=O)/N=C1/NC(=O)[C@]2(O[C@H](CO)[C@@H](O)[C@H](O)[C@H]2O)S1
[b] O=C(O)C[C@H](OC(=O)/C=C/c1ccc(O)cc1)[C@@H](OC(=O)/C=C/c1ccc(O)cc1)C(=O)O
Hi! Which is lower in terms of Ki, the first one a or the second one b ? Returns: label corresponding to the selected item.
b
(b: 0.46 µM, a: 137 µM)

###

- Tgt: Glycogen phosphorylase, muscle form (Oryctolagus cuniculus)
- Sequence (P00489 whole entry): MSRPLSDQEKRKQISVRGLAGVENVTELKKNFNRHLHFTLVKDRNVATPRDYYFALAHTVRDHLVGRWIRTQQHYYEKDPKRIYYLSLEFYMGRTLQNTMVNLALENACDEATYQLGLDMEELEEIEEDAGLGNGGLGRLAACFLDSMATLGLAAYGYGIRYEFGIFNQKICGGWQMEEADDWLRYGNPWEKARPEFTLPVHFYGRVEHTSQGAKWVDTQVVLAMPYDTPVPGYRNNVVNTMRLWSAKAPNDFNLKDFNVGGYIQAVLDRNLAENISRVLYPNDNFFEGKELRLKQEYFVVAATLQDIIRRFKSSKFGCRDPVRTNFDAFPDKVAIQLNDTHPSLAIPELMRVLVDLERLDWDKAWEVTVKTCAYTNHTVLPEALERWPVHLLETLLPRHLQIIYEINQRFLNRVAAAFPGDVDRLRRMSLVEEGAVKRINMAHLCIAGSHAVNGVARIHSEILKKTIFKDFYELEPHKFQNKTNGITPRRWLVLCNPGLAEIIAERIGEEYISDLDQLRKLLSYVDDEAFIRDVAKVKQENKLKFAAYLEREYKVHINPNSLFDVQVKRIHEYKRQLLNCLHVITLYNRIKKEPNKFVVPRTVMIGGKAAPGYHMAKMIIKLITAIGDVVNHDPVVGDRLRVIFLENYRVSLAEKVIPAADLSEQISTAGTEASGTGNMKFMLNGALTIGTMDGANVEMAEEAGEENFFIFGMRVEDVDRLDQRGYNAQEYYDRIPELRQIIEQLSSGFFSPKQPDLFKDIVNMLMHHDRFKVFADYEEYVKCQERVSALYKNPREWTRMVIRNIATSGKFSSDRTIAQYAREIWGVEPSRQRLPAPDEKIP
Multiple publications report Ki for Glycogen phosphorylase, muscle form (Oryctolagus cuniculus); what follows is a combined list.
Measured metric: Ki (µM)

{"columns": ["Test smiles", "Unit symbol", "Observed value"],
 "data": [
  ["O=C1N[C@@]2(O[C@H](CO)[C@@H](O)[C@H](O)[C@H]2O)C(=O)N1O", "µM", 39]
]}

[a] O=c1[nH]c(=O)n([C@@H]2O[C@H](CO)[C@@H](O)[C@H](O)[C@H]2O)cc1Cl
[b] O=C1N/C(=N/S(=O)(=O)c2cccc3ccccc23)S[C@@]12O[C@H](CO)[C@@H](O)[C@H](O)[C@H]2O
[c] CN1C(=O)N[C@@]2(O[C@H](CO)[C@@H](O)[C@H](O)[C@H]2O)C1=O
[d] Cc1n[nH]c([C@@H]2O[C@H](CO)[C@@H](O)[C@H](O)[C@H]2O)n1
# desc sort on Ki across 4 compounds Your task in answering is to list the labels in the requested order.
c, d, b, a
(c: 1200 µM, d: 499 µM, b: 29 µM, a: 1.02 µM)
